biological target: recombinant soluble homotrimeric HA of A/Wisconsin/67/05 (H3N2) (Influenza A virus A/Wisconsin/67/2005(H3N2)); test: HA microarray, BCC supernatant; settings: remark: other sources report otherwise
In this section we review reported Trimeric HA Binding: RLU values for a set of binders.
// units = RLU; emit number, no label

Find the recorded Trimeric HA Binding: RLU belonging to TCN-536 (5095_N01) (antibody, V domains shown) VH: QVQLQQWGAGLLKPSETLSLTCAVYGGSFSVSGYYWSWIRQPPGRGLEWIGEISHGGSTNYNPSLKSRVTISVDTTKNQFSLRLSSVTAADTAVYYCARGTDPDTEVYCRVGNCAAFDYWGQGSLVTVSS VL: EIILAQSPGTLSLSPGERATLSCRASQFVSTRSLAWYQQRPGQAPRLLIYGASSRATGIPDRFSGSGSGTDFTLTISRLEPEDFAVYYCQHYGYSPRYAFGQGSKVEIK and report it.
35000

From here, focus on the item given below.
I have this binder here, TCN-543 (5081_G23) (antibody, V domains shown) VH: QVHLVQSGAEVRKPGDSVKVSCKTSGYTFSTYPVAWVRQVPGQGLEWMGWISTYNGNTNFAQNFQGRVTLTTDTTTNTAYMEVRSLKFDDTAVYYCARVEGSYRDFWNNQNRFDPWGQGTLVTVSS VL: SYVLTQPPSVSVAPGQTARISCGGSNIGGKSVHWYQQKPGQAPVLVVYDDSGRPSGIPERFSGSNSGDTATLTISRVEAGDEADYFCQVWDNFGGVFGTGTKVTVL , and I need its recorded Trimeric HA Binding: RLU.
1360

Entry source: patent US20150086555A1
